Biological target: CHK2 (Homo sapiens)
Sequence (O96017 whole entry, species assumed): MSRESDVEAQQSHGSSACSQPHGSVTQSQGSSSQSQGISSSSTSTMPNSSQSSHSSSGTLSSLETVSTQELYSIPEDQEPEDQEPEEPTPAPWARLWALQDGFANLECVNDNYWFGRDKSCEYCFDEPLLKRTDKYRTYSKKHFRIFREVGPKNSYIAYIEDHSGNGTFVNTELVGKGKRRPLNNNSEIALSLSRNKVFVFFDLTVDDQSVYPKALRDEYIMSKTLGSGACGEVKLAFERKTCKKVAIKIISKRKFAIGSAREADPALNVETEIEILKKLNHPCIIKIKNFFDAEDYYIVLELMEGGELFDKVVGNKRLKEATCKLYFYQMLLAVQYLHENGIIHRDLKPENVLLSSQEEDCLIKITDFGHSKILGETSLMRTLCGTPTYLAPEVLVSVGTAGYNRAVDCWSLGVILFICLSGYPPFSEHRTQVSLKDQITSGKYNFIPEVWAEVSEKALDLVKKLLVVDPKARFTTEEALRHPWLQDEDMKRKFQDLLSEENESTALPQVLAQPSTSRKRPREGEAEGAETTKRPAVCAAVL
Assay: Kinase profiling CHK2
Format: biochemical
Conditions: 100 micromolar inhibitor concentration; 100 is no change; read-out: residual kinase activity, CHK2
Examples of molecules with documented remaining activity at 100 µM follow.
PROPERTY_NAME: remaining activity at 100 µM (%)

INSERT INTO results (smiles, target_or_system, property_name, recorded_measurement) VALUES
  ('COc1ccc2sc(NC(C)=O)nc2c1', 'CHK2 (Homo sapiens)', 'remaining activity at 100 µM', 58),
  ('CC(=O)Nc1nc2ccc(O)cc2s1', 'CHK2 (Homo sapiens)', 'remaining activity at 100 µM', 17),
  ('CC(=O)Nc1nc2cc(F)ccc2s1', 'CHK2 (Homo sapiens)', 'remaining activity at 100 µM', 63),
  ('CC(=O)Nc1nc2ccc(C(F)(F)F)cc2s1', 'CHK2 (Homo sapiens)', 'remaining activity at 100 µM', 43),
  ('CC(=O)Nc1nc2ccc(C#N)cc2s1', 'CHK2 (Homo sapiens)', 'remaining activity at 100 µM', 30),
  ('CC(=O)Nc1nc2cc(C(F)(F)F)ccc2s1', 'CHK2 (Homo sapiens)', 'remaining activity at 100 µM', 78),
  ('CC(=O)Nc1nc2ccc([N+](=O)[O-])cc2s1', 'CHK2 (Homo sapiens)', 'remaining activity at 100 µM', 59);

----------
Recorded residual kinase activity, PKCz, one value per entry.
Target: PKCz (Homo sapiens)
Sequence (Q05513 whole entry): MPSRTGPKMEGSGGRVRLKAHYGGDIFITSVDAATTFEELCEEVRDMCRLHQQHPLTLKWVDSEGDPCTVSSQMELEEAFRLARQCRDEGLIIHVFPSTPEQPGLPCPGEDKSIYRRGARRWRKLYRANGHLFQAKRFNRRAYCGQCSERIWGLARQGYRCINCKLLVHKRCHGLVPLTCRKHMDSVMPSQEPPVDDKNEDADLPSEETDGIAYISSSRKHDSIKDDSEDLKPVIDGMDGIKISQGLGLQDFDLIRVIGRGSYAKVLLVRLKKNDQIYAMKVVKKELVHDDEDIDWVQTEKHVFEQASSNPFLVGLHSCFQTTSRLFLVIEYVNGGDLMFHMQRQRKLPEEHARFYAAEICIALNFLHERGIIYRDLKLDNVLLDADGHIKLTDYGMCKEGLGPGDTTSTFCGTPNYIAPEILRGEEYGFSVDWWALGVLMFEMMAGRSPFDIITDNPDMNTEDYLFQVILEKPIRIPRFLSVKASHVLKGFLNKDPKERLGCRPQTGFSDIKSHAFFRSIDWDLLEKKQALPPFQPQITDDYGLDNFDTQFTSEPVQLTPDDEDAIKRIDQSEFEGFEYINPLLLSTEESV
Test: Kinase profiling PKCz
Format: biochemical
Details: 100 micromolar inhibitor concentration; 100 is no change
PROPERTY_NAME: residual kinase activity, PKCz

INSERT INTO results (smiles, recorded_measurement) VALUES
  ('CC(=O)Nc1cccc(C(=O)Nc2nc3ccc(O)cc3s2)c1', 84),
  ('CC(=O)Nc1ccc(C(=O)Nc2nc3cc(O)ccc3s2)cc1', 83),
  ('CC(=O)Nc1ccccc1C(=O)Nc1nc2ccc(O)cc2s1', 38),
  ('CC(=O)Nc1nc2ccccc2s1', 126),
  ('O=C(Nc1nc2ccc(O)cc2s1)c1cccnc1', 81),
  ('O=C(Nc1nc2ccc(O)cc2s1)c1ccccn1', 88),
  ('O=C(Nc1nc2cc(O)ccc2s1)c1cccnc1', 105),
  ('COc1ccc2sc(NC(=O)c3cccc(NC(C)=O)c3)nc2c1', 101),
  ('O=C(Nc1nc2ccc(O)cc2s1)c1ccncc1', 76),
  ('O=C(Nc1nc2cc(O)ccc2s1)c1ccccn1', 102);

----------
Target: MEKK1 (Homo sapiens, UniProt Q13233)
Sequence (Q13233 whole entry, species assumed): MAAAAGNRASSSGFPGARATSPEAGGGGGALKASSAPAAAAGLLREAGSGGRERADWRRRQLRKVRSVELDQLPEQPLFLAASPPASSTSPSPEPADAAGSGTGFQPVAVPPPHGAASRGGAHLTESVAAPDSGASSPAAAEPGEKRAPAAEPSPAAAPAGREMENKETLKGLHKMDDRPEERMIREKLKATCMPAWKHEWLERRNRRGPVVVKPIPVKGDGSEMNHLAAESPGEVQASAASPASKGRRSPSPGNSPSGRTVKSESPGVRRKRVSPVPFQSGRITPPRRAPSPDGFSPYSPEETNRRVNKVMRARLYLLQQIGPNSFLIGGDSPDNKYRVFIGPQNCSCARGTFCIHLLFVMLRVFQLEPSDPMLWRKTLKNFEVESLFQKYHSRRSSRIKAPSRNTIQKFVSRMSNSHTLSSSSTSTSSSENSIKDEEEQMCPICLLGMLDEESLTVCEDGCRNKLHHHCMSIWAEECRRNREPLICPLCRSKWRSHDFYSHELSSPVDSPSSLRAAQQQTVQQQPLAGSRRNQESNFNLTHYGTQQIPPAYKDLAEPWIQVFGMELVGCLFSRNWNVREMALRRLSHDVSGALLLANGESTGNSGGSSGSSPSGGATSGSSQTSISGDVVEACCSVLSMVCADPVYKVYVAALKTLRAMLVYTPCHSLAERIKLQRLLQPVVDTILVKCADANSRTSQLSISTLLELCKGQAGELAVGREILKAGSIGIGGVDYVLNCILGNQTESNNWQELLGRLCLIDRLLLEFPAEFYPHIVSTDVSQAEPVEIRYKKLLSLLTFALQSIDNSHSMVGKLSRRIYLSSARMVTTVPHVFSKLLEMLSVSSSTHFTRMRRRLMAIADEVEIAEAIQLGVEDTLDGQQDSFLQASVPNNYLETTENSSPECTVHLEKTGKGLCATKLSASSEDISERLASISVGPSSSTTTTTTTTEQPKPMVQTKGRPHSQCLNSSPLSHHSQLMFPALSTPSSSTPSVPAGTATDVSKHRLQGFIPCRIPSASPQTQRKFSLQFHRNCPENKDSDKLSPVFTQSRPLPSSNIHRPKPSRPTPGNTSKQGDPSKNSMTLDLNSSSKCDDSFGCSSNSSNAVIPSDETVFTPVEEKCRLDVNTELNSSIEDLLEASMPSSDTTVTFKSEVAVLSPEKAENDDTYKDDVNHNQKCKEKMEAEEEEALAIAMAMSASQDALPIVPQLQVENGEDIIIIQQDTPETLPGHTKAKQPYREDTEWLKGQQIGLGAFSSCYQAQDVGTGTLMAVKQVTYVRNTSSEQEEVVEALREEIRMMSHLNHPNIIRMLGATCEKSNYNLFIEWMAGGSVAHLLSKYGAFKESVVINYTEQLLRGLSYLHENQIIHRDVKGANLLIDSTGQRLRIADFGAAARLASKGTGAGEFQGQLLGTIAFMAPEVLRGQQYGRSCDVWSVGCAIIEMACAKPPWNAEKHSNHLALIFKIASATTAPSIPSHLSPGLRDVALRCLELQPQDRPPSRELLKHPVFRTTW
Experiment: Kinase profiling MEKK1
Type: biochemical
Details: 100 micromolar inhibitor concentration; 100 is no change; read-out: residual kinase activity, MEKK1
remaining activity at 100 µM overview
PROPERTY_NAME: remaining activity at 100 µM (%)

INSERT INTO assay_data (molecule, property_name, recorded_measurement) VALUES
  ('CC(=O)Nc1nc2ccc(C(F)(F)F)cc2s1 [Compound 01-90]', 'remaining activity at 100 µM', 90),
  ('CC(=O)Nc1nc2cc(F)ccc2s1 [Compound 03-77]', 'remaining activity at 100 µM', 102),
  ('CC(=O)Nc1nc2cc(C(F)(F)F)ccc2s1 [Compound 03-73]', 'remaining activity at 100 µM', 111),
  ('CC(=O)Nc1nc2ccc(O)cc2s1 [Compound 01-71]', 'remaining activity at 100 µM', 96),
  ('COc1ccc2sc(NC(C)=O)nc2c1 [Compound 03-21]', 'remaining activity at 100 µM', 113),
  ('CC(=O)Nc1nc2ccc(C#N)cc2s1 [Compound 01-94]', 'remaining activity at 100 µM', 94);

----------
Target: ROCK 2 (Homo sapiens)
Sequence (O75116 whole entry, species assumed): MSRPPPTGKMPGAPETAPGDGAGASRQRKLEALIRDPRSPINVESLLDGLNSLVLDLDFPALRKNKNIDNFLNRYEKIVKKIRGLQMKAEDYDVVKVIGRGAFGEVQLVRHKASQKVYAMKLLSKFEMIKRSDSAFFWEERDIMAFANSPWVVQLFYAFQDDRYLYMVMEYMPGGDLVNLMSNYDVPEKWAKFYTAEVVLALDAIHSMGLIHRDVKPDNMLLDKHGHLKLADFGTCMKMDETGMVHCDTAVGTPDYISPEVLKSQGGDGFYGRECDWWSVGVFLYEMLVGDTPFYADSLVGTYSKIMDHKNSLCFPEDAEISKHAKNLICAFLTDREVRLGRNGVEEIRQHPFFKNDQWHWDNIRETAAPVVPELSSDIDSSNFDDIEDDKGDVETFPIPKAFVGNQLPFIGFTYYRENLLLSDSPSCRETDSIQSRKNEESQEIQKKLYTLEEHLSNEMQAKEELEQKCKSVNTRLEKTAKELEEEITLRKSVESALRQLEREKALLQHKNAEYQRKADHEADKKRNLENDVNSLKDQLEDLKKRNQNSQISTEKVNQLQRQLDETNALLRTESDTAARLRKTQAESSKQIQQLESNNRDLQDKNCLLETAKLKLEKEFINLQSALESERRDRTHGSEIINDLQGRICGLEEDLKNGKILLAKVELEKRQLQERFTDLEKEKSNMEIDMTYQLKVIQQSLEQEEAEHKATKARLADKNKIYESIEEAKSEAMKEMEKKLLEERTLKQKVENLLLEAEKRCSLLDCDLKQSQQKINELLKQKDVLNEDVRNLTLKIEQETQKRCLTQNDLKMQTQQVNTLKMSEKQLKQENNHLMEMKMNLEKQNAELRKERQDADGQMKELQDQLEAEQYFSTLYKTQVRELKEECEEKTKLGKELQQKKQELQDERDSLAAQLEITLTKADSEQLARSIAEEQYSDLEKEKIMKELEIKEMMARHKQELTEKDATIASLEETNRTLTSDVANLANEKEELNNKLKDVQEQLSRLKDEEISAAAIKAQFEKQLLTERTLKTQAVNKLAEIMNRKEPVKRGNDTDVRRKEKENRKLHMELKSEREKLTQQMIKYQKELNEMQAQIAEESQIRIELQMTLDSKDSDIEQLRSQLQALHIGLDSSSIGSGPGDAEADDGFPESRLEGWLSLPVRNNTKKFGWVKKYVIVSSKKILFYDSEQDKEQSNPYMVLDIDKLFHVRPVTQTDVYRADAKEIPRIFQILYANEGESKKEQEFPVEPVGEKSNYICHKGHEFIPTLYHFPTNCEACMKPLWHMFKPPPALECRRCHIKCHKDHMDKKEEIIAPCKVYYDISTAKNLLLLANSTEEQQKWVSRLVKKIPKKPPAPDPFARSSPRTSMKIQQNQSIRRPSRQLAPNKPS
Test: Kinase profiling ROCK 2
Format: biochemical
Settings: 100 micromolar inhibitor concentration; 100 is no change; read-out: residual kinase activity, ROCK 2
Values of remaining activity at 100 µM strictly less than 50% map to 1.0, and values of at least 50% map to 0.0.

INSERT INTO results (smiles, group_label) VALUES
  ('CC(=O)Nc1nc2cc(C(F)(F)F)ccc2s1', 0.0),
  ('CC(=O)Nc1nc2ccc(C#N)cc2s1', 0.0),
  ('CC(=O)Nc1nc2ccc(C(F)(F)F)cc2s1', 0.0),
  ('CC(=O)Nc1nc2cc(F)ccc2s1', 1.0),
  ('COc1ccc2sc(NC(C)=O)nc2c1', 0.0),
  ('CC(=O)Nc1nc2ccc(O)cc2s1', 1.0),
  ('CC(=O)Nc1nc2ccc([N+](=O)[O-])cc2s1', 0.0);

----------
The entries below come with measured residual kinase activity, EPH-B4 values attached.
Target: EPH-B4 (Homo sapiens, UniProt P54760)
Sequence (P54760 16-987): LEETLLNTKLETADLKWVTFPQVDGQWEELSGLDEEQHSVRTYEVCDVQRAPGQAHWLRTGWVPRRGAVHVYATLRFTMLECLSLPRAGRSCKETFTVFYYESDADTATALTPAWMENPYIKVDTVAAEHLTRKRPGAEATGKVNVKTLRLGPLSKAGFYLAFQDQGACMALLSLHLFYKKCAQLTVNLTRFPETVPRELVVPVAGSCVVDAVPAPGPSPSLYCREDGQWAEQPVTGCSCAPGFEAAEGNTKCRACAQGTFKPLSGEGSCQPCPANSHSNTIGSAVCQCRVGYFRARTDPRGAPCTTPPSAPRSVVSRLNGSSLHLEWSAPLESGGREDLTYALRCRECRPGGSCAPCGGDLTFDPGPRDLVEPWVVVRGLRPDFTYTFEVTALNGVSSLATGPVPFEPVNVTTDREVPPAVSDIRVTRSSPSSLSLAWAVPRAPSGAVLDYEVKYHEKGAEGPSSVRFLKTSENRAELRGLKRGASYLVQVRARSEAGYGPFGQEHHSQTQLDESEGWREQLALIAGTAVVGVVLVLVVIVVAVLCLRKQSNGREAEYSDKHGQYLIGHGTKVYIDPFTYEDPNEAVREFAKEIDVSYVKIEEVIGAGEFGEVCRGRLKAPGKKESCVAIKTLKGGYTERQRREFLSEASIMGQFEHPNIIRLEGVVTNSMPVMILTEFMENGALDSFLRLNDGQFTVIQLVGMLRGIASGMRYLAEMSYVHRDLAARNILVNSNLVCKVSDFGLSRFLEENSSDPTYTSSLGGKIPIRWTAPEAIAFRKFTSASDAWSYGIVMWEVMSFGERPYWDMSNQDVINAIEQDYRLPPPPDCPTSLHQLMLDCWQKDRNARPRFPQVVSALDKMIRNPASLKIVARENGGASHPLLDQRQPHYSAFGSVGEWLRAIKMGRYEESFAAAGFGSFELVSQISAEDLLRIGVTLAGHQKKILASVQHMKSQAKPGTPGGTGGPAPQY
Assay: Kinase profiling EPH-B4
Assay type: biochemical
Conditions: 100 micromolar inhibitor concentration; 100 is no change
PROPERTY_NAME: residual kinase activity, EPH-B4

INSERT INTO results (smiles, property_name, recorded_measurement) VALUES
  ('O=C(Nc1nc2ccc(O)cc2s1)c1ccncc1', 'residual kinase activity, EPH-B4', 92),
  ('O=C(Nc1nc2ccc(O)cc2s1)c1ccccc1', 'residual kinase activity, EPH-B4', 110),
  ('CC(=O)Nc1nc2cc(C)ccc2s1', 'residual kinase activity, EPH-B4', 109),
  ('O=C(Nc1nc2cc(O)ccc2s1)c1cccnc1', 'residual kinase activity, EPH-B4', 106),
  ('O=C(Nc1nc2ccc(O)cc2s1)c1cccnc1', 'residual kinase activity, EPH-B4', 100),
  ('O=C(Nc1nc2ccc(O)cc2s1)c1ccccn1', 'residual kinase activity, EPH-B4', 84),
  ('O=C(Nc1nc2cc(O)ccc2s1)c1ccncc1', 'residual kinase activity, EPH-B4', 97),
  ('O=C(Nc1nc2cc(O)ccc2s1)c1ccccn1', 'residual kinase activity, EPH-B4', 88),
  ('CC(=O)Nc1nc2ccccc2s1', 'residual kinase activity, EPH-B4', 99);

----------
Known residual kinase activity, TAK1 of a selection of compounds
Target: TAK1 (Homo sapiens)
Sequence (O43318 1-303 limits assumed): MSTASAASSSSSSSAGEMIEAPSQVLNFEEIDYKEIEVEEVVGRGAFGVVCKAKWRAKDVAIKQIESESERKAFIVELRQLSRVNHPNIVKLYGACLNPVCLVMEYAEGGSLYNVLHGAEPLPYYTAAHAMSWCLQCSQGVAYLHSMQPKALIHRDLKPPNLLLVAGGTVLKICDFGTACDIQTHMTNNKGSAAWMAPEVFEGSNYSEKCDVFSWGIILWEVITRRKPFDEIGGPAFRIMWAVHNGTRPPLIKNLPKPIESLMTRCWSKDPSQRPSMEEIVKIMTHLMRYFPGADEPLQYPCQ
Sequence (Q15750 437-504 partner limits assumed): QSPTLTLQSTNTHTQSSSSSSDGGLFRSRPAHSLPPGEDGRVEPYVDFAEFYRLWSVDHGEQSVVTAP
Assay: Kinase profiling TAK1
Type: biochemical
Conditions: 100 micromolar inhibitor concentration; 100 is no change
PROPERTY_NAME: residual kinase activity, TAK1

INSERT INTO assay_data (smiles, recorded_measurement) VALUES
  ('COC(=O)c1cccc(C(=O)Nc2nc3ccc(F)cc3s2)c1', 68),
  ('O=C(Nc1nc2ccc(O)cc2s1)c1ccccn1', 33),
  ('O=C(Nc1nc2ccc(O)cc2s1)c1cccnc1', 18),
  ('CC(=O)Nc1nc2ccccc2s1', 76),
  ('O=C(Nc1nc2cc(O)ccc2s1)c1ccccn1', 34);

----------
Parameter: residual kinase activity, SYK. Scope: all listed entries.
Target: SYK (Homo sapiens, UniProt P43405)
Assay: Kinase profiling SYK
Type: biochemical
Conditions: 100 micromolar inhibitor concentration; 100 is no change
PROPERTY_NAME: residual kinase activity, SYK

INSERT INTO results (smiles, recorded_measurement) VALUES
  ('O=C(Nc1nc2ccc(O)cc2s1)c1ccccn1', 99),
  ('O=C(Nc1nc2ccc(O)cc2s1)c1ccccc1', 64),
  ('CC(=O)Nc1nc2ccc(F)cc2s1', 96),
  ('N#Cc1ccc2nc(NC(=O)c3ccccc3)sc2c1', 93),
  ('O=C(Nc1nc2ccc(O)cc2s1)c1ccncc1', 90);
